assay_notes: Terminal half-life in Wistar rat at 7.5 mg/kg, iv administered as single dose by UPLC-MS/MS method
Assay type: ADME, organism-based
measurement_context: in vivo, read-out: beta t1/2 (converted)

{"smiles_string": "Nc1ccn([C@@H]2O[C@H](CO)[C@@H](O)C2(F)F)c(=O)n1", "unit": "h", "half-life": 4.4}

----------
assay_notes: Half life in pH 7.4 phosphate buffer at 5 uM by HPLC method
Type: physicochemical
Reported half-life at 5 µM values for a set of molecules
assay_metric: half-life at 5 µM

{"molecule": "C[N+](C)(C)CC(CC(=O)[O-])OC(=O)CCCCC(=O)Nc1ccn([C@@H]2O[C@H](CO)[C@@H](O)C2(F)F)c(=O)n1 (stereo partly drawn)", "assay_metric": "half-life at 5 µM", "result": "45.8 h"}
{"molecule": "CCCC(=O)Nc1ccn([C@@H]2O[C@H](CO)[C@@H](O)C2(F)F)c(=O)n1", "assay_metric": "half-life at 5 µM", "result": "10.3 h"}
{"molecule": "C[N+](C)(C)CC(CC(=O)[O-])OC(=O)CCC(=O)Nc1ccn([C@@H]2O[C@H](CO)[C@@H](O)C2(F)F)c(=O)n1 (stereo partly drawn)", "assay_metric": "half-life at 5 µM", "result": "28.4 h"}
